# measurementProtocol: Pharmacokinetics of sofosbuvir and ledipasvir alone or in combination
# Type: in vivo
# conditionDescription: in vivo, po, plasma analyte; Sofosbuvir + Ledipasvir; n = 17; mean (% CV)
propertyName: Cmax (ng/mL)
One number for each entry, in ng/mL.

Reported Cmax for `CC(C)OC(=O)[C@H](C)N[P@](=O)(OC[C@H]1O[C@@H](n2ccc(=O)[nH]c2=O)[C@](C)(F)[C@@H]1O)Oc1ccccc1` was 1870

* * *

# measurementProtocol: PK of sofosbuvir alone or with Compound E (and ledipasvir)
# Assay type: in vivo
# conditionDescription: human, in vivo, po, 400 mg, SOF alone (400 mg single dose, fed); n = 18; mean (% CV)
propertyName: AUC(0-t) (ng·h/mL)
Give bare numbers, in ng·h/mL.

Reported AUC(0-t) for `CC(C)OC(=O)[C@H](C)N[P@](=O)(OC[C@H]1O[C@@H](n2ccc(=O)[nH]c2=O)[C@](C)(F)[C@@H]1O)Oc1ccccc1` was 908

* * *

# measurementProtocol: PK of Sofosbuvir/Ledipasvir tablets fasted or with meals
# conditionDescription: plasma, po, Cmax, plasma analyte; Sofosbuvir/Ledipasvir Tablet, Fasted; n = 29; mean (% CV)
propertyName: Cmax (ng/mL)
One number for each entry, in ng/mL.

Reported Cmax for COC(=O)N[C@H](C(=O)N1CC2(CC2)C[C@H]1c1ncc(-c2ccc3c(c2)C(F)(F)c2cc(-c4ccc5nc([C@@H]6[C@H]7CC[C@H](C7)N6C(=O)[C@@H](NC(=O)OC)C(C)C)[nH]c5c4)ccc2-3)[nH]1)C(C)C [Ledipasvir] was 324

* * *

# measurementProtocol: pH-solubility profile and solubility in simulated intestinal media
# Assay type: physicochemical
# conditionDescription: pH-adjusted aqueous solution, pH 4.1, aqueous buffer, thermodynamic from solid, Aqueous, pH 4.1 (HCl), room temperature
propertyName: solubility at 48 h (µg/mL)
Give bare numbers, in µg/mL.

Reported solubility at 48 h for COC(=O)N[C@H](C(=O)N1CC2(CC2)C[C@H]1c1ncc(-c2ccc3c(c2)C(F)(F)c2cc(-c4ccc5nc([C@@H]6[C@H]7CC[C@H](C7)N6C(=O)[C@@H](NC(=O)OC)C(C)C)[nH]c5c4)ccc2-3)[nH]1)C(C)C [Ledipasvir amorphous free base] was 0.11

* * *

# measurementProtocol: PK of sofosbuvir alone or with Compound E (and ledipasvir)
# Assay type: in vivo
# conditionDescription: human, in vivo, po, 400 mg, SOF + Compound E (500 mg QD), fed; n = 18; mean (% CV)
propertyName: AUC(0-t)
Field: value (include unit after the number)

Reported AUC(0-t) for `CC(C)OC(=O)[C@H](C)N[P@](=O)(OC[C@H]1O[C@@H](n2ccc(=O)[nH]c2=O)[C@](C)(F)[C@@H]1O)Oc1ccccc1` was 1140 ng·h/mL

* * *

# measurementProtocol: PK of Sofosbuvir/Ledipasvir tablets fasted or with meals
# conditionDescription: plasma, po, Cmax, plasma analyte; Sofosbuvir/Ledipasvir Tablet, Moderate-Fat Meal; n = 29; mean (% CV)
propertyName: Cmax (ng/mL)
Answers are plain numbers, in ng/mL.

Reported Cmax for `COC(=O)N[C@H](C(=O)N1CC2(CC2)C[C@H]1c1ncc(-c2ccc3c(c2)C(F)(F)c2cc(-c4ccc5nc([C@@H]6[C@H]7CC[C@H](C7)N6C(=O)[C@@H](NC(=O)OC)C(C)C)[nH]c5c4)ccc2-3)[nH]1)C(C)C` was 319

* * *

# measurementProtocol: clinical
# conditionDescription: in vivo, po, AUCinf, plasma analyte; Sofosbuvir/Ledipasvir Tablet, Moderate-Fat Meal; n = 29; mean (% CV)
propertyName: AUC(0-inf) (ng·h/mL)
Answers are plain numbers, in ng·h/mL.

Reported AUC(0-inf) for CC(C)OC(=O)[C@H](C)N[P@](=O)(OC[C@H]1O[C@@H](n2ccc(=O)[nH]c2=O)[C@](C)(F)[C@@H]1O)Oc1ccccc1 [Sofosbuvir] was 2860

* * *

# measurementProtocol: Pharmacokinetics of sofosbuvir and ledipasvir alone or in combination
# Assay type: in vivo
# Parameters: concentration or dose not given beside the values
# conditionDescription: plasma, po, plasma analyte; Sofosbuvir + Ledipasvir; n = 17; mean (% CV)
propertyName: AUC(0-inf) (ng·h/mL)
Answers are plain numbers, in ng·h/mL.

Reported AUC(0-inf) for `COC(=O)N[C@H](C(=O)N1CC2(CC2)C[C@H]1c1ncc(-c2ccc3c(c2)C(F)(F)c2cc(-c4ccc5nc([C@@H]6[C@H]7CC[C@H](C7)N6C(=O)[C@@H](NC(=O)OC)C(C)C)[nH]c5c4)ccc2-3)[nH]1)C(C)C` was 11400

* * *

# measurementProtocol: Pharmacokinetics of sofosbuvir and ledipasvir alone or in combination
# Type: in vivo
# Design: concentration or dose not given beside the values
# conditionDescription: plasma, po, plasma analyte; Ledipasvir alone; n = 17; mean (% CV)
propertyName: AUC(0-inf) (ng·h/mL)
One number for each entry, in ng·h/mL.

Reported AUC(0-inf) for `COC(=O)N[C@H](C(=O)N1CC2(CC2)C[C@H]1c1ncc(-c2ccc3c(c2)C(F)(F)c2cc(-c4ccc5nc([C@@H]6[C@H]7CC[C@H](C7)N6C(=O)[C@@H](NC(=O)OC)C(C)C)[nH]c5c4)ccc2-3)[nH]1)C(C)C` was 11900

* * *

# measurementProtocol: clinical
# conditionDescription: in vivo
propertyName: Tmax (h)
Answers are plain numbers, in h.

Reported Tmax for `CC(C)OC(=O)[C@H](C)N[P@](=O)(OC[C@H]1O[C@@H](n2ccc(=O)[nH]c2=O)[C@](C)(F)[C@@H]1O)Oc1ccccc1` was 1

* * *

# measurementProtocol: pH-solubility profile and solubility in simulated intestinal media
# Format: physicochemical
# conditionDescription: pH-adjusted aqueous solution, pH 5.5, aqueous buffer, thermodynamic from solid, Aqueous, pH 5.5 (HCl), room temperature
propertyName: solubility at 48 h (µg/mL)
Give bare numbers, in µg/mL.

Reported solubility at 48 h for COC(=O)N[C@H](C(=O)N1CC2(CC2)C[C@H]1c1ncc(-c2ccc3c(c2)C(F)(F)c2cc(-c4ccc5nc([C@@H]6[C@H]7CC[C@H](C7)N6C(=O)[C@@H](NC(=O)OC)C(C)C)[nH]c5c4)ccc2-3)[nH]1)C(C)C [Ledipasvir amorphous free base] was 0.03

The reported measurements were obtained from patent US10039779B2.
